Molecular target: T1, human prolactin receptor on transfected FDC-P1 cells (human, UniProt P16471 25-622)
T1 sequence (looked up): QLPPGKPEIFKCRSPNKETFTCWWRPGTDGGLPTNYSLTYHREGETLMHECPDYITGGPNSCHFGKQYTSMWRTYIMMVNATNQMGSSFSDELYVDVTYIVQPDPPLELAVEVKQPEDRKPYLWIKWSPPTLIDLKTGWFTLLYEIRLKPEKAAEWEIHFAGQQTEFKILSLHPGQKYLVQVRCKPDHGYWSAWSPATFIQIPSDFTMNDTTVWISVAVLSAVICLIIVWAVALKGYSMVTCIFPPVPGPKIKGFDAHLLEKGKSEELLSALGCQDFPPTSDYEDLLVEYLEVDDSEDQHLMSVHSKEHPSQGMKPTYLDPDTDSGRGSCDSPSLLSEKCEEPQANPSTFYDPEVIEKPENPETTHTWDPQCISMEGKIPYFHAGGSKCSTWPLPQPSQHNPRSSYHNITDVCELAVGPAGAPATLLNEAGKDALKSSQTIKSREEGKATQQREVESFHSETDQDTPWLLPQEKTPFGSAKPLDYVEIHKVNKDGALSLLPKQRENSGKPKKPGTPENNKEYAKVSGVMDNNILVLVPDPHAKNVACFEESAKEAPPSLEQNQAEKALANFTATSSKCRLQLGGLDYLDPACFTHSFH
Experiment: cell-based or functional assay
parameter_measured: ED50 (nM), FDC-P1 lactogenic assay (cell proliferation, Alamar blue)

Form field: reported ED50 (nM), FDC-P1 lactogenic assay (cell proliferation, Alamar blue) of F50E human prolactin (ligand) MLPICPGGAARCQVTLRDLFDRAVVLSHYIHNLSSEMFSEFDKRYTHGRGEITKAINSCHTSSLATPEDKEQAQQMNQKDFLSLIVSILRSWNEPLYHLVTEVRGMQEAPEAILSKAVEIEEQTKRLLEGMELIVSQVHPETKENEIYPVWSGLPSLQMADEESRLSAYYNLLHCLRRDSHKIDNYLKLLKCRIIHNNNC
1 nM

Values were extracted from patent US6995244.
